Origin of values: the RNAGym collection of RNA variant scans (doi:10.1126/science.aae0568)

B1: tRNA (parent)
chain: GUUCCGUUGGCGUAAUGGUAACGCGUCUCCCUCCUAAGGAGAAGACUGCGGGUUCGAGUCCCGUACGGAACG

- Variants of: B1
- assay: yeast fitness relative to wild type (ratio to wild type); higher = fitter; tRNA-Arg(CCU), competitive growth, 37 C, YPD
Variants at the floor of the assay were thinned out.
measurement.kind: yeast fitness

>>> readout_value("C11A C27G G50A U64G")
"≤ 0.5"
>>> readout_value("C5G C22A C31U G50U C60U")
"≤ 0.5"
>>> readout_value("C5A G17C A57C")
0.551
>>> readout_value("U3A U7G C29G C49U")
"≤ 0.5"
>>> readout_value("U7C C30A C60A")
"≤ 0.5"
>>> readout_value("A15G A20G C49A C61U C62A G67C")
"≤ 0.5"
>>> readout_value("C5U A15G C22G G41A A45U U47A C62U A69U")
"≤ 0.5"
>>> readout_value("U28A C29G C33U C34G A42U")
0.536
>>> readout_value("U2A C24G A43U C46U")
0.542
>>> readout_value("A37G U54C")
0.674
>>> readout_value("U2A C24U U47C C60U")
"≤ 0.5"
